test: Oral bioavailability in mouse at 5 mg/kg; type: ADME, organism-based; details: in vivo
endpoint.label: bioavailability (%)
Please state the figure in %; there is no need to write the unit.

Q: Fill blank: measured bioavailability of the compound C[C@H](Nc1ccc(-c2ccnn2C)nc1)C(=O)Nc1ccc(-c2cccnc2)cn1 is ____.
Result: 106

----------
assay: Intrinsic clearance in mouse liver microsomes; assay type: ADME, microsome; settings: read-out: CLH
Consider the following compounds and their measured microsomal CLint readings.
Please state the figure in µL/min/mg; there is no need to write the unit.

INSERT INTO measurements (cpd_smiles, unit_of_measurement, test_result) VALUES
  ('O=C(Nc1ccc(-c2ccccc2)cc1)[C@@H]1CCCN1c1ccc(-n2ccnc2)cc1', 'µL/min/mg', 18),
  ('C[C@@H](Oc1ccc(-n2ccnc2)cc1)C(=O)Nc1ccc(-c2ccccc2)cc1', 'µL/min/mg', 63),
  ('C[C@H](Oc1ccc(-n2ccnc2)cc1)C(=O)Nc1ccc(-c2ccccc2)cc1', 'µL/min/mg', 85),
  ('C[C@H](Nc1ccc(-c2ccnn2C)nc1)C(=O)Nc1ccc(-c2cccnc2)cn1', 'µL/min/mg', 8);

Q: Fill blank: measured microsomal CLint of the compound C[C@H](Nc1ccc(-c2ccnn2C)nc1)C(=O)Nc1ccc(-c2ccccc2)cn1 is ____.
Result: 8

----------
assay: Cmax in mouse at 5 mg/kg, po; format: ADME, organism-based; design: dose 5 mg/kg, route oral; conditions: in vivo
endpoint.label: Cmax
Quote the value and follow it with the unit of measurement.

Q: Fill blank: measured Cmax of the compound C[C@H](Nc1ccc(-c2ccnn2C)nc1)C(=O)Nc1ccc(-c2cccnc2)cn1 is ____.
Result: 4270 ng/mL

----------
test: Intrinsic clearance in mouse liver microsomes; type: ADME, microsome; details: read-out: CLH
Threshold-based label: microsomal CLint under 10 µL/min/mg gives true (1), microsomal CLint not under 10 µL/min/mg gives false (0).

The examples below pair each entry with its known result.
INSERT INTO assay_data (cpd_smiles, classification) VALUES
  ('C[C@@H](Nc1ccc(-n2ccnc2)cc1)C(=O)Nc1ccc(-c2ccccc2)cn1', 'false (0)'),
  ('O=C(COc1ccc(-n2ccnc2)cc1)Nc1ccc(-c2ccccc2)cc1', 'false (0)'),
  ('C[C@H](Nc1ccc(-n2ccnc2)cc1)C(=O)Nc1ccc(-c2ccccc2)cn1', 'true (1)');

Q: API: query returns whether the molecule falls strictly under 10 µL/min/mg in microsomal CLint. Query: C[C@H](Nc1ccc(-c2ccnn2C)nc1)C(=O)Nc1ccc(-c2cccnc2)nc1
Result: true (1)

Q: API: query returns whether the molecule falls strictly under 10 µL/min/mg in microsomal CLint. Query: O=C(CNc1ccc(-n2ccnc2)cc1)Nc1ccc(-c2ccccc2)cc1
Result: false (0)

----------
experiment: Thermodynamic solubility of the compound at pH 7.4; format: physicochemical; conditions: buffer, read-out: Therm_solubility
endpoint.label: solubility thermodynamic (µg/mL)
Please state the figure in µg/mL; there is no need to write the unit.

Known results for compounds:
INSERT INTO results (cpd_smiles, test_result) VALUES
  ('C[C@H](Nc1ccc(-c2ccnn2C)nc1)C(=O)Nc1ccc(-c2cccnc2)cn1', 72.5),
  ('C[C@H](Nc1ccc(-c2ccnn2C)nc1)C(=O)Nc1ccc(-c2ccccc2)cn1', 4);

--- query ---
Q: Fill blank: measured solubility thermodynamic of the compound C[C@H](Nc1ccc(-c2ccnn2C)nc1)C(=O)Nc1ccc(-c2cccnc2)nc1 is ____.
Result: 102
